target: RAR beta (Homo sapiens, UniProt P10826)
Sequence (P10826 183-417 limits assumed): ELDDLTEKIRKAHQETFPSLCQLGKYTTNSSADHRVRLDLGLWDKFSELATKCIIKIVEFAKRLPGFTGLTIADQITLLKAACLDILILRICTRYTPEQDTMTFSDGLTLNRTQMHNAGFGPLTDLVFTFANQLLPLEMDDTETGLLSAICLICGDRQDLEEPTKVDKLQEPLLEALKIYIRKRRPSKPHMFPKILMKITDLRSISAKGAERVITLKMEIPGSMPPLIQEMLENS
assay_info: Transactivation test (luciferase reporter, HeLa cells), RAR beta
measurement_setup: HeLa stable transfectants, reference ligand at the concentration that gives 80% activation
quantity_name: IC50 (nM)

>  <compound>
CC1(C)CCC(C)(C)c2c(OCc3ccc(F)c(F)c3)cc([Se]C#Cc3ccc(C(=O)O)cc3)cc21 [Ex 4]

>  <target>
RAR beta (Homo sapiens, UniProt P10826)

>  <recorded_measurement>
6.4

$$$$
>  <compound>
CC1(C)CCC(C)(C)c2c(OCc3ccc(F)cc3)cc([Se]C#Cc3ccc(C(=O)O)cc3)cc21 [Ex 11]

>  <target>
RAR beta (Homo sapiens, UniProt P10826)

>  <recorded_measurement>
6.4

$$$$

[1] CC1(C)CCC(C)(C)c2c(OCc3ccc(F)cc3F)cc([Se]C#Cc3ccc(C(=O)O)cc3)cc21 [Ex 5]
[2] CC(C)(C)c1ccc(COc2cc([Se]C#Cc3ccc(C(=O)O)cc3)cc3c2C(C)(C)CCC3(C)C)cc1 [Ex 3]
[3] CC1(C)CCC(C)(C)c2c(OCc3cccc(F)c3)cc([Se]C#Cc3ccc(C(=O)O)cc3)cc21 [Ex 1]
[4] Cc1cccc(COc2cc([Se]C#Cc3ccc(C(=O)O)cc3)cc3c2C(C)(C)CCC3(C)C)c1 [Ex 10]
Order these by IC50, descending, and give the full ranking. A ranking is expressed here by listing the labels in the requested order.
2, 4, 3, 1
(2: 48 nM, 4: 24 nM, 3: 6.5 nM, 1: 1.6 nM)

Cited source for all entries: patent US7326803B2
